Test system: HG23 cells
Test: Nonspecific cytotoxic effects in HG23 cells
Format: cell-based
Settings: cytotoxic dose for 50% cell death (CC50), 1 to 100 μM, 48 h, CytoTox 96 kit and crystal violet staining, average of at least two determinations
Consider the following compounds and their measured TC50 (EC50) readings.

Compound	TC50 (EC50)
CC(C)C[C@@H]1NC(=O)OC(c2cccc(Cl)c2)CCCCCONC(=O)CC[C@@H](C=O)NC1=O (single isomer, unassigned) [Compound 36B]	73.8 µM
CC(C)C[C@@H]1NC(=O)OC(c2cccc(Cl)c2)CCCCCNC(=O)CC[C@@H](C=O)NC1=O (some centres unmarked)	>100 µM
O=C[C@@H]1CCC(=O)NCCCCCC(c2cccc(Cl)c2)OC(=O)N[C@@H](CC2CCCCC2)C(=O)N1 (some centres unmarked) [14(major)]	62.4 µM
C[C@@H]1NC(=O)OC(c2cccc(Cl)c2)CCCCCNC(=O)CC[C@@H](C=O)NC1=O (some centres unmarked)	>100 µM
CC(C)C[C@@H]1NC(=O)OC(CCCc2ccccc2)CCCCCNC(=O)CC[C@@H](C=O)NC1=O (some centres unmarked)	71.5 µM
CC(C)C[C@@H]1NC(=O)OC(Cc2ccccc2)CCCCCNC(=O)CC[C@@H](C=O)NC1=O (some centres unmarked)	>100 µM
CC(C)C[C@@H]1NC(=O)OC(c2cccc(Cl)c2)CCCCCNC(=O)CC[C@@H](C(O)S(=O)(=O)[O-])NC1=O.[Na+] (some centres unmarked)	>100 µM
C[C@@H]1NC(=O)OC(c2cccc(Cl)c2)CCCCCCNC(=O)CC[C@@H](C=O)NC1=O (some centres unmarked)	>100 µM

----------
Consider the following compounds and their measured TC50 (EC50) readings.
Tested on: HG23 cells
Experiment: Nonspecific cytotoxic effects in HG23 cells
Type: cell-based
Details: cytotoxic dose for 50% cell death (CC50), 1 to 100 μM, 48 h, CytoTox 96 kit and crystal violet staining, average of at least two determinations
Parameter: TC50 (EC50) (µM)

Compound	Parameter	Measured result
CCCCCC1CCCCCNC(=O)CC[C@@H](C(O)S(=O)(=O)[O-])NC(=O)[C@H](CC(C)C)NC(=O)O1.[Na+] (stereo partly drawn)	TC50 (EC50)	78.5
CC(C)C[C@@H]1NC(=O)OC(c2cccc(Cl)c2)CCCCCONC(=O)CC[C@@H](C=O)NC1=O (single isomer, unassigned) [Compound 36A]	TC50 (EC50)	68.3
O=C[C@@H]1CCC(=O)NCCCCCCC(c2cccc(Cl)c2)OC(=O)NC2(CCCCC2)C(=O)N1 (stereo partly drawn)	TC50 (EC50)	53.3

----------
Consider the following compounds and their measured TC50 (EC50) readings.
System: HG23 cells
Assay: Nonspecific cytotoxic effects in HG23 cells
Format: cell-based
Settings: cytotoxic dose for 50% cell death (CC50), 1 to 100 μM, 48 h, CytoTox 96 kit and crystal violet staining, average of at least two determinations
Parameter: TC50 (EC50) (µM)

Compound	Tested system	Parameter	Qualifier	Measured result
CC(C)C[C@@H]1NC(=O)OC(CCCc2ccccc2)CCCCCNC(=O)CC[C@@H](C(O)S(=O)(=O)[O-])NC1=O.[Na+] (stereo partly shown)	HG23 cells	TC50 (EC50)	=	69.2
O=C1CC[C@@H](C(O)S(=O)(=O)[O-])NC(=O)C2(CCCCC2)NC(=O)OC(c2cccc(Cl)c2)CCCCCCN1.[Na+] (stereo partly shown)	HG23 cells	TC50 (EC50)	=	46.6
CC(C)C[C@@H]1NC(=O)OC(c2ccccc2)CCCCCNC(=O)CC[C@@H](C=O)NC1=O (stereo partly shown)	HG23 cells	TC50 (EC50)	>	100
O=C[C@@H]1CCC(=O)NCCCCCC(c2cccc(Cl)c2)OC(=O)NC2(CCCCC2)C(=O)N1 (stereo partly shown)	HG23 cells	TC50 (EC50)	=	62.4
O=C1CC[C@@H](C(O)S(=O)(=O)[O-])NC(=O)C2(CCCCC2)NC(=O)OC(c2cccc(Cl)c2)CCCCCN1.[Na+] (stereo partly shown)	HG23 cells	TC50 (EC50)	=	48.5
O=C[C@@H]1CCC(=O)NCCCCCC(c2cccc(Cl)c2)OC(=O)N[C@@H](CC2CCCCC2)C(=O)N1 (stereo partly shown) [14(minor)]	HG23 cells	TC50 (EC50)	=	45.3
CC(C)C[C@@H]1NC(=O)OC(c2cccc(Cl)c2)CCCCCNC(=O)CC[C@@H](C(=O)C(=O)NC2CC2)NC1=O (stereo partly shown)	HG23 cells	TC50 (EC50)	=	53.1
